- Protocol: Displacement of [3H]CGP12177 from beta-1 adrenergic receptor in Wistar rat cerebral cortex membrane by liquid scintillation counting
- Assay type: tissue-based
pKi: −log10 of the molar value.
Measured parameter: pKi

Use the examples below as a reference point.
COc1ccccc1OCCNC[C@H](O)COc1ccc(OC)c2[nH]ccc12
7.23
COc1ccccc1OCCNC[C@H](O)COc1c(OC)ccc2[nH]ccc12
6.05
COc1ccccc1OCCNCC(O)COc1c(OC)ccc2[nH]ccc12 (racemic)
5.80

a. COc1ccccc1OCCNC[C@@H](O)COc1ccc(OC)c2[nH]ccc12
b. COc1ccccc1OCCNCC(O)COc1ccc(OC)c2[nH]ccc12 (racemic)
c. COc1ccccc1OCCNCC(O)COc1cccc2[nH]ccc12 (racemic)
d. COc1ccccc1OCCNC[C@@H](O)COc1c(OC)ccc2[nH]ccc12
Order the records so the highest pKi appears first and the lowest last. Respond with the label ranking, as requested.
c, b, a, d

----------
- System name: Adrenergic receptor alpha-2 (Rattus norvegicus, UniProt P22086+P19328+P22909)
- Sequence (P22086 whole entry): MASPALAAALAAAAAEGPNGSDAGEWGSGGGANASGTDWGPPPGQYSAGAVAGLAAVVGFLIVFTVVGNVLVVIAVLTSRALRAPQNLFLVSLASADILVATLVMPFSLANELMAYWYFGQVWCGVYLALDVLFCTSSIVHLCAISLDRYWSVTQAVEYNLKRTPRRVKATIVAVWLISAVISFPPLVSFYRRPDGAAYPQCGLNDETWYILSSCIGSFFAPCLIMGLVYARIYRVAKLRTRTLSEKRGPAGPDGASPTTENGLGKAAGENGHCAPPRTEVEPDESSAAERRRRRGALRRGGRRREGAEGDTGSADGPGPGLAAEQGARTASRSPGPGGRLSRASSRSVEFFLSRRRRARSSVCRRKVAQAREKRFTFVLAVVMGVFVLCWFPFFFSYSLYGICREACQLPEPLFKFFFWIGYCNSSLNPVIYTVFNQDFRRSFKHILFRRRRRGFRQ
- Sequence (P19328 whole entry): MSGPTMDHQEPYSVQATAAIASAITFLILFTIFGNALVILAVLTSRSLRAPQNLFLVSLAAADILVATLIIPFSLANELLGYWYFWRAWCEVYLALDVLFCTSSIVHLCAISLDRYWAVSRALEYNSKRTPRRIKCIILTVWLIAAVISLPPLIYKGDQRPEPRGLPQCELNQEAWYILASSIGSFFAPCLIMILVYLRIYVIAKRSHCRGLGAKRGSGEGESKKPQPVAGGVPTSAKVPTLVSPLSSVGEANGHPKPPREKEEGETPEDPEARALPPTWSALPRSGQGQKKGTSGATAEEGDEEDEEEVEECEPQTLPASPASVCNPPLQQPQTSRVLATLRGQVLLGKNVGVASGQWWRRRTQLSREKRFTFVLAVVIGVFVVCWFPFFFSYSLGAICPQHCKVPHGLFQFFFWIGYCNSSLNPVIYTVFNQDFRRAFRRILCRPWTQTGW
- Sequence (P22909 whole entry): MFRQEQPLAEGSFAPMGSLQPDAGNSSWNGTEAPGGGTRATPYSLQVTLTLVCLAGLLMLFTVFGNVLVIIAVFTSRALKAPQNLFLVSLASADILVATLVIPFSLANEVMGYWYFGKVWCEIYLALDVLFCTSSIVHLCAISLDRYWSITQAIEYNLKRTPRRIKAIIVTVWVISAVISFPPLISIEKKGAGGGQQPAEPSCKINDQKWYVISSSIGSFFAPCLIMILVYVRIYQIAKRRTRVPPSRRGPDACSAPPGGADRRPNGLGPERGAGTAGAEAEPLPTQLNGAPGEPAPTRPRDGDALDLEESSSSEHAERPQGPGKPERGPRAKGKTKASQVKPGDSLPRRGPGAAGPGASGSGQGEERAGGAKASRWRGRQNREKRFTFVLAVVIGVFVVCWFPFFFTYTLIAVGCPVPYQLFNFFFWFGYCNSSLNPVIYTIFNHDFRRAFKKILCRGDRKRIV
- Protocol: Displacement of [3H]Clonidine from alpha2 adrenergic receptor in Wistar rat cerebral cortex membrane by liquid scintillation counting
- Format: tissue-based
Measured parameter: Ki (nM)

Consider the worked cases shown below.
COc1ccccc1OCCNC[C@@H](O)COc1c(OC)ccc2[nH]ccc12
43
COc1ccccc1OCCNC[C@H](O)COc1c(OC)ccc2[nH]ccc12
60.9

A. COc1ccccc1OCCNCC(O)COc1c(OC)ccc2[nH]ccc12 (racemic)
B. COc1ccccc1OCCNC[C@@H](O)COc1ccc(OC)c2[nH]ccc12
C. COc1ccccc1OCCNC[C@H](O)COc1ccc(OC)c2[nH]ccc12
D. COc1ccccc1OCCNCC(O)COc1ccc(OC)c2[nH]ccc12 (racemic)
// ascending sort on recorded Ki Reply: labels, ordered per the request.
A, B, D, C
